// 5-hydroxytryptamine receptor 6 (Homo sapiens) Ki records
Answer format: numeric, nM implied, no suffix.

For orientation, consider the following solved cases.
CN(C)CCn1cc(Cc2ccc(N)cc2)c2ccccc21    50
CNCCC1=CC(Cc2ccccc2)c2ccccc21 (stereo not drawn)    3
Nc1ccc(CC2=CCc3ccccc32)cc1    11800

Attention now turns to another entry.
Test item Nc1ccc(Cc2c[nH]c3ccccc23)cc1 ; 5-hydroxytryptamine receptor 6 (Homo sapiens); reported Ki was 2530

----------
# tgt: 5-hydroxytryptamine receptor 6 (Homo sapiens)
# Sequence (P50406 whole entry): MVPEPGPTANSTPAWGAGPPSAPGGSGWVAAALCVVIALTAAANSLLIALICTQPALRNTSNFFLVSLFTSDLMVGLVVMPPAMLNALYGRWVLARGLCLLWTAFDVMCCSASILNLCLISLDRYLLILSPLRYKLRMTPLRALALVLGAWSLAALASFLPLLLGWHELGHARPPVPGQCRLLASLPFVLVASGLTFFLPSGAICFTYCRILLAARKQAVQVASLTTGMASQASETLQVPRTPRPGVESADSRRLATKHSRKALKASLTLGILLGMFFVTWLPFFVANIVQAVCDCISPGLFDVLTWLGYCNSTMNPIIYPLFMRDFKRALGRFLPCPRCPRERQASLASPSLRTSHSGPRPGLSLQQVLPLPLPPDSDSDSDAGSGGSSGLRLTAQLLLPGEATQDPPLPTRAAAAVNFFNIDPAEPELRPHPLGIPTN
measured.quantity: Ki (nM)
Give the number; nM is assumed, so skip it.

Answered examples (2):
Nc1ccc(/C=C2\C=Cc3ccccc32)cc1    640
CN(C)CCc1cn(CCc2ccccc2)c2ccccc12    12

Short answer for CN(C)CCC1=C/C(=C\c2ccccc2)c2ccccc21 : Ki was 57

The value of Ki measured for the compound Nc1ccc(CC2C=Cc3ccccc32)cc1 (centres undefined) turned out to be 4470

Reference source for all entries: ChEMBL document CHEMBL1143518
